Values were extracted from PubChem BioAssay (NCI).

Test system: K-562 leukemia
Test: NCI-60 one-dose screen, 48 h (100 = growth as untreated, 0 = no growth, -100 = all killed)
Conditions: 10 µM unless noted
This is part of a sample that, as a whole, favours compounds with a hit. Of some 83,000 tested, about 20% had one in any assay. Active and inactive are the calls of the source. How the source made its calls: active means growth percent below 10; inactive means the rest.
QUANTITY MEASURED: growth

[
  {
    "COMPOUND": "COC(=O)C1=C(C)C(=O)CC1",
    "ASSAYED TARGET": "K-562 leukemia",
    "QUANTITY MEASURED": "growth",
    "MEASURED": "96.1% (inactive)"
  },
  {
    "COMPOUND": "CC(=O)N=c1ccc2nc3c(cc(N)c4ccccc43)oc-2c1",
    "ASSAYED TARGET": "K-562 leukemia",
    "QUANTITY MEASURED": "growth",
    "MEASURED": "-55.7% (active)"
  },
  {
    "COMPOUND": "Cc1cc(C)cc(OCC(=O)O)c1",
    "ASSAYED TARGET": "K-562 leukemia",
    "QUANTITY MEASURED": "growth",
    "MEASURED": "93.3% (inactive)"
  },
  {
    "COMPOUND": "CC(c1ccccc1)N(C)C (configuration not stated)",
    "ASSAYED TARGET": "K-562 leukemia",
    "QUANTITY MEASURED": "growth",
    "MEASURED": "28% (inactive)"
  },
  {
    "COMPOUND": "O=C(O)Cc1ccccn1",
    "ASSAYED TARGET": "K-562 leukemia",
    "QUANTITY MEASURED": "growth",
    "MEASURED": "108% (inactive)"
  },
  {
    "COMPOUND": "c1ccc(Nc2ccccn2)nc1",
    "ASSAYED TARGET": "K-562 leukemia",
    "QUANTITY MEASURED": "growth",
    "MEASURED": "90.5% (inactive)"
  },
  {
    "COMPOUND": "CCCCCCCCCCCCCCCCOc1ccccc1NC(=O)CC(C)=O",
    "ASSAYED TARGET": "K-562 leukemia",
    "QUANTITY MEASURED": "growth",
    "MEASURED": "87.1% (inactive)"
  },
  {
    "COMPOUND": "c1ccc(Oc2c3ccccc3nc3ccccc23)cc1",
    "ASSAYED TARGET": "K-562 leukemia",
    "QUANTITY MEASURED": "growth",
    "MEASURED": "8.65% (active)"
  },
  {
    "COMPOUND": "CN(C)c1ccc2c(N(C)C)cc(N(C)C)nc2c1",
    "ASSAYED TARGET": "K-562 leukemia",
    "QUANTITY MEASURED": "growth",
    "MEASURED": "64.4% (inactive)"
  },
  {
    "COMPOUND": "Cc1ccc(/C=N/NC(N)=S)s1",
    "ASSAYED TARGET": "K-562 leukemia",
    "QUANTITY MEASURED": "growth",
    "MEASURED": "103% (inactive)"
  },
  {
    "COMPOUND": "CCOc1ccccc1NC(=O)CCl",
    "ASSAYED TARGET": "K-562 leukemia",
    "QUANTITY MEASURED": "growth",
    "MEASURED": "86.8% (inactive)"
  },
  {
    "COMPOUND": "O=C(NCCc1ccccc1)/C(=C\\c1ccc(Cl)cc1Cl)NC(=O)c1ccccc1",
    "ASSAYED TARGET": "K-562 leukemia",
    "QUANTITY MEASURED": "growth",
    "MEASURED": "122% (inactive)"
  },
  {
    "COMPOUND": "O=C(CC(CC(=O)c1ccccc1)c1ccccn1)c1ccccc1",
    "ASSAYED TARGET": "K-562 leukemia",
    "QUANTITY MEASURED": "growth",
    "MEASURED": "92.6% (inactive)"
  },
  {
    "COMPOUND": "CN(C)c1ncnc2c1cnn2C",
    "ASSAYED TARGET": "K-562 leukemia",
    "QUANTITY MEASURED": "growth",
    "MEASURED": "97% (inactive)"
  },
  {
    "COMPOUND": "CC1CCC(C)(C)c2ccccc21 (configuration not stated)",
    "ASSAYED TARGET": "K-562 leukemia",
    "QUANTITY MEASURED": "growth",
    "MEASURED": "115% (inactive)"
  },
  {
    "COMPOUND": "CCC(=O)C1C(=O)c2ccccc2C1=O",
    "ASSAYED TARGET": "K-562 leukemia",
    "QUANTITY MEASURED": "growth",
    "MEASURED": "63.7% (inactive)"
  },
  {
    "COMPOUND": "CC(C)=CCC[C@@H](C)[C@H]1CC[C@@]2(C)C3=C(CC[C@]12C)[C@@]1(C)CC[C@H](O)C(C)(C)[C@@H]1CC3",
    "ASSAYED TARGET": "K-562 leukemia",
    "QUANTITY MEASURED": "growth",
    "MEASURED": "91.2% (inactive)"
  },
  {
    "COMPOUND": "NNc1ncccn1",
    "ASSAYED TARGET": "K-562 leukemia",
    "QUANTITY MEASURED": "growth",
    "MEASURED": "102% (inactive)"
  },
  {
    "COMPOUND": "O=C(O)CCCCCNC(=O)OCc1ccccc1",
    "ASSAYED TARGET": "K-562 leukemia",
    "QUANTITY MEASURED": "growth",
    "MEASURED": "124% (inactive)"
  },
  {
    "COMPOUND": "O=Cc1ccc(Cl)c(Cl)c1",
    "ASSAYED TARGET": "K-562 leukemia",
    "QUANTITY MEASURED": "growth",
    "MEASURED": "104% (inactive)"
  },
  {
    "COMPOUND": "CC(C)OCC(CCl)OC(=O)Nc1ccccc1 (configuration not stated)",
    "ASSAYED TARGET": "K-562 leukemia",
    "QUANTITY MEASURED": "growth",
    "MEASURED": "103% (inactive)"
  },
  {
    "COMPOUND": "NCC(O)C(O)C(O)C(O)CO (configuration not stated)",
    "ASSAYED TARGET": "K-562 leukemia",
    "QUANTITY MEASURED": "growth",
    "MEASURED": "103% (inactive)"
  },
  {
    "COMPOUND": "CC1(C)C2CCC1(C)C1(C2)OCCS1 (configuration not stated)",
    "ASSAYED TARGET": "K-562 leukemia",
    "QUANTITY MEASURED": "growth",
    "MEASURED": "96.5% (inactive)"
  },
  {
    "COMPOUND": "COc1cccc2c1Cc1ccccc1-2",
    "ASSAYED TARGET": "K-562 leukemia",
    "QUANTITY MEASURED": "growth",
    "MEASURED": "94.4% (inactive)"
  },
  {
    "COMPOUND": "O=c1cc(C(F)(F)F)[nH]c(=S)[nH]1",
    "ASSAYED TARGET": "K-562 leukemia",
    "QUANTITY MEASURED": "growth",
    "MEASURED": "111% (inactive)"
  },
  {
    "COMPOUND": "COC(c1ccc2c(c1)OCO2)C(C)Br (configuration not stated)",
    "ASSAYED TARGET": "K-562 leukemia",
    "QUANTITY MEASURED": "growth",
    "MEASURED": "87.3% (inactive)"
  },
  {
    "COMPOUND": "CN1CCN(C(=S)S)CC1",
    "ASSAYED TARGET": "K-562 leukemia",
    "QUANTITY MEASURED": "growth",
    "MEASURED": "73.5% (inactive)"
  }
]
